The measurements presented in this section are drawn from paper PMC11152992.

# experiment_notes: Mouse brain tissue binding
# Format: in vitro ADME
# particulars: mouse, mouse brain tissue, pH 7.4, fu
measured_quantity: fraction unbound at 4 h, 5 µM
Give the figure by itself; no unit, no explanation.

Please look at this compound and report its fraction unbound at 4 h, 5 µM: NC(=O)N1c2ccccc2C=Cc2ccccc21 [Carbamazepine, reference compound] 0.118
